The measured values listed here are drawn from paper PMC3566764.

Exercise: state measured IC50^6/1 (ratio IC50 HDAC6/IC50 HDAC1) for each of the molecules provided.
- assayTarget: rHDAC1 (Homo sapiens, UniProt Q13547)
- Construct: purchased BPS Bioscience (US)
- Sequence (Q13547 whole entry): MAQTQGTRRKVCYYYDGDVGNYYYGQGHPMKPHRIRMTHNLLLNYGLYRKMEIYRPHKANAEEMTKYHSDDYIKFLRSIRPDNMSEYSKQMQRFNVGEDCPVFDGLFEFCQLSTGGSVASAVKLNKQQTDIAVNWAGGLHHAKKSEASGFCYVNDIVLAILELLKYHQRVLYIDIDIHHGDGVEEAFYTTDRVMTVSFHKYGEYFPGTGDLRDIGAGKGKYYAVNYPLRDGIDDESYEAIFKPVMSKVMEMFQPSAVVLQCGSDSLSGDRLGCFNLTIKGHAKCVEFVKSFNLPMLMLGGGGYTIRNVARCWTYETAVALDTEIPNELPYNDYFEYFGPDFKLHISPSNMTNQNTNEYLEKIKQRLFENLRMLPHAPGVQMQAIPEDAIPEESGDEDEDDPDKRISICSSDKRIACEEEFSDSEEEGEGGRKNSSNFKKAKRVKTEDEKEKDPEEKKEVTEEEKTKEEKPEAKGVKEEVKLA
- experimentalDetails: rHDAC1 inhibition, coupled Boc-Lys(Ac)-AMC/trypsin fluorescence assay
- Format: biochemical
- conditionNotes: isoform selectivity in vitro
API note: the answer field is a bare number with no unit suffix.

The molecule O=C(NCCS)/C(Cc1ccc(O)c(Br)c1)=N/O showed IC50^6/1 (ratio IC50 HDAC6/IC50 HDAC1) equal to 360

The molecule O=C(NCCSSCCNC(=O)/C(Cc1ccc(O)c(Br)c1)=N/O)/C(Cc1ccc(O)c(Br)c1)=N/O showed IC50^6/1 (ratio IC50 HDAC6/IC50 HDAC1) equal to 62

The molecule O=C(CCCCCCC(=O)Nc1ccccc1)NO [SAHA (1), suberoylanilide hydroxamic acid] showed IC50^6/1 (ratio IC50 HDAC6/IC50 HDAC1) equal to 7

The molecule COc1ccc(C/C(=N\O)C(=O)NCCSC(C)=O)cc1Br showed IC50^6/1 (ratio IC50 HDAC6/IC50 HDAC1) equal to 4560
